# Substrate: NP of A/Brisbane/59/2007(H1N1/H1B) (influenza A virus A/Brisbane/59/2007 (H1N1))
# test_method_notes: sandwich ELISA, capture IgG; NP of lysed virus titrated; HRP-NP17 detection
pEC50: −log10 of the molar value.

binder	pEC50
NP18 (antibody, V domains shown) VH: EVQLVESGGGLVQPGGSLRLSCAASGFTISGGGIHWVRQAPGKGLEWVASIWPSWGSTSYADSVKGRFTISADTSKNTAYLQMNSLRAEDTAVYYCARFHNGGFLVMDYWGQGTLVTVSS VL: DIQMTQSSSSLSASVGDRVTITCRASQDVGYYVAWYQQKPGKAPKLLIYGPRFLYSGVPSRFSGSGSGTDFTLTISSLQPEDFATYYCQQYSNWPITFGQGTKVEIKR	7.18
NP7 (antibody, V domains shown) VH: EVQLVESGGGLVQPGGSLRLSCAASGFTISNGGIHWVRQAPGKGLEWVAGIGPYGGFTSYADSVKGRFTISADTSKNTAYLQMNSLRAEDTAVYYCARFYSNYYGYHGVMDYWGQGTLVTVSS VL: DIQMTQSPSSLSASVGDRVTITCRASQDVFGWVAWYQQKPGKAPKLLISYSASLYSGVPSRFSGSGSGTDFTLTISSLQPEDFATYYCQQYFNYPLTFGQGTKVEIKR	8.38
NP21 (antibody, V domains shown) VH: EVQLVESGGGLVQPGGSLRLSCAASGFTINGYGIHWVRQAPGKGLEWVAGIWPYGGSTFYADSVKGRFTISADTSKNTAYLQMNSLRAEDTAVYYCARFYNNHGGIMDYWGQGTLVTVSS VL: DIQMTQSPSSLSASVGDRVTITCRASQDVYFYVAWYQQKPGKAPKLLIYGSRWLYSGVPSRFSGSGSGTDFTLTISSLQPEDFATYYCQQYSNFPVTFGQGTKVEIKR	9.09
